Listing of recorded RP-LC retention time by entry.
# test.details: gradient 5% acetonitrile 3 min, to 50% in 2 min, to 85% in 15 min, held 3 min, 100 µL/min
# assay.setup: column: Zorbax Extend-C18 2.1 x 50 mm; eluents: water / acetonitrile, 0.1% formic acid
Write the value in s as a bare number.

Previously resolved entries follow.
- molecule: "CN(C)C(=O)[C@@]12CCCC[C@H]1N(CCc1ccccc1)C(=O)CC2"
  readout.value: 725
- molecule: "CCC(c1cccs1)N1C(=O)[C@H]2CN(S(=O)(=O)c3cccc(Cl)c3)C[C@H]2C1=O (stereo not given in full)"
  readout.value: 1060
- molecule: "Cc1cccc(S(=O)(=O)N2CCCC(OCc3nc(C)no3)C2)c1 (stereo not given)"
  readout.value: 877
- molecule: "CC1(C(=O)NCc2ccccc2)CN(S(=O)(=O)c2ccccc2)CC(=O)N1CCC1=CCCCC1 (stereo not given)"
  readout.value: 1090

Now let's try a different one.
Query block: Determine from records and report RP-LC retention time for Cc1nnc2c(NC(=O)Cc3cccc(C(F)(F)F)c3)cccn12
Result block: 785

* * *

Listed next: entries and their corresponding RP-LC retention time.
# test.details: gradient 5% acetonitrile 3 min, to 50% in 2 min, to 85% in 15 min, held 3 min, 100 µL/min
# assay.setup: column: Zorbax Extend-C18 2.1 x 50 mm; eluents: water / acetonitrile, 0.1% formic acid
Enter your answer as a number in s; do not include the unit.

The following compounds have reported results that may help.
- chemical.string: "O=C(CSc1ccncc1)N1CC2CN(S(=O)(=O)c3cccc(F)c3)CC(C1)O2"
  units: "s"
  RP-LC retention time: 600
- chemical.string: "Cc1csc(-c2csc(S(=O)(=O)N3CCN(c4cccc(C)c4C)CC3)c2)n1"
  units: "s"
  RP-LC retention time: 1310
- chemical.string: "CCOc1ccc(S(=O)(=O)N2CCC(c3noc(-c4ccc(C)cc4)n3)CC2)cc1"
  units: "s"
  RP-LC retention time: 1240
- chemical.string: "O=C(NC1CC1)[C@@H]1C[C@H](Oc2cccnc2)CN1C(=O)c1ccoc1"
  units: "s"
  RP-LC retention time: 546

We next turn to a different compound, shown below.
Query block: Report RP-LC retention time for CCN1C(=O)c2cccnc2Sc2cc(NC(=O)COc3cccc(Cl)c3)ccc21
Result block: 916

* * *

Parameter: RP-LC retention time. Scope: all listed entries.
# test.details: gradient 5% acetonitrile 3 min, to 50% in 2 min, to 85% in 15 min, held 3 min, 100 µL/min
# assay.setup: column: Zorbax Extend-C18 2.1 x 50 mm; eluents: water / acetonitrile, 0.1% formic acid
The answer is to be given in s; state only the numeric part.

As a guide, the following entries are already answered.
- compound: "O=C(NCCN1CCOCC1)c1sc2cc(Cl)ccc2c1Cl"
  RP-LC retention time (s): 590
- compound: "Cc1cc(NC(=O)CCc2nc(CSc3nnc(-c4ccccc4)o3)no2)ccc1Br"
  RP-LC retention time (s): 1040
- compound: "CCN1CCN(c2ncc3c(n2)CCN(Cc2cccc(C)c2)C3)CC1"
  RP-LC retention time (s): 529

API: the following record is the query input.
Query block: Query RP-LC retention time for Cc1ccc(C(=O)N2CCCC2c2c(C)noc2C)cc1 (stereo not given)
Result block: 760

* * *

# test.details: gradient 5% acetonitrile 3 min, to 50% in 2 min, to 85% in 15 min, held 3 min, 100 µL/min
# assay.setup: column: Zorbax Extend-C18 2.1 x 50 mm; eluents: water / acetonitrile, 0.1% formic acid
RP-LC retention time less than 800 s is Y; RP-LC retention time greater than or equal to 800 s is N.

- compound: "Cn1c(=O)c(=O)n(C)c2cc(N3CCCC3)c(NC(=O)C3CC3)cc21"
  assigned.label: "Y"
- compound: "CC1Oc2ccccc2N(Cc2nc(-c3ccc4c(c3)OCO4)no2)C1=O (stereo not given)"
  assigned.label: "N"
- compound: "O=C(CN1C(=O)C2CCCCN2c2ccc(C(=O)N3CCCC3)cc21)Nc1ccncc1 (stereo not given)"
  assigned.label: "Y"
- compound: "COC(=O)c1cc(OCC(=O)NC2CCCC2)c2cc(OC)ccc2n1"
  assigned.label: "Y"
- compound: "CCCCNC(=O)CCC1CCCN(c2cc(NCC)ncn2)C1 (stereo not given)"
  assigned.label: "Y"
- compound: "O=C(CCNc1cnc2cnccn12)NCc1ccc(F)c(Cl)c1"
  assigned.label: "Y"

Query block: Please state whether RP-LC retention time is below 800 s for COc1ccc(-c2noc(Cc3nnc(-c4cc(C)cc(C)c4)o3)n2)cc1
Result block: N

Query block: Please check: RP-LC retention time for COc1cc(NC(=O)CN2C(=O)CCc3cc(Br)ccc32)cc(OC)c1 , strictly under 800 s or not?
Result block: N

Query block: Field: below-cutoff. Rule: recorded RP-LC retention time strictly less than 800 s. Subject: CCS(=O)(=O)c1ccc2c(c1)N(Cc1nc(-c3ccccc3Cl)no1)C(=O)CO2
Result block: N

Query block: Answer whether the compound COCCN1C(=O)c2ccccc2C(C(=O)NCCCN2CCCC(C)C2)C1c1cccs1 (stereo not given) has RP-LC retention time strictly less than 800 s
Result block: Y

Query block: Hello, I'm reviewing records and need to know if RP-LC retention time of O=C(N1CCN(c2ccccc2F)CC1)C1(CCO)CCN(c2ncccn2)C1 (stereo not given) is below 800 s. Could you check?
Result block: Y

Query block: hey, is RP-LC retention time for CCS(=O)(=O)Nc1ccc(-c2noc(COc3ccc(Cl)cc3)n2)cc1 lower than 800 s or not?
Result block: N

Query block: Take the compound Cc1ccc(NC(=O)N2CCC(c3cc(N)on3)CC2)cc1C and say whether its RP-LC retention time is less than 800 s.
Result block: Y

Query block: Regarding CCc1ccccc1N(C)C(=O)c1cc2c(=O)n(CC)c3ccccc3n2n1 , kindly confirm whether its RP-LC retention time is beneath 800 s.
Result block: N

Query block: RP-LC retention time strictly < 800 s for this compound? Cc1nn(-c2ccc(N3CCCCC3)nn2)c(C)c1CCC(=O)NCCCc1ccco1
Result block: Y

* * *

Measured RP-LC retention time by item
# test.details: gradient 5% acetonitrile 3 min, to 50% in 2 min, to 85% in 15 min, held 3 min, 100 µL/min
# assay.setup: column: Zorbax Extend-C18 2.1 x 50 mm; eluents: water / acetonitrile, 0.1% formic acid
Note: unit s is implicit; provide only the numeric part.

Known RP-LC retention time results, listed for orientation:
- chemical.string: "CCOC(=O)c1cccc(NC(=O)c2cc(C)nn2-c2ccccc2)c1"
  RP-LC retention time [s]: 936
- chemical.string: "Cc1cc(NS(=O)(=O)c2cc(-c3nc(C(C)(C)C)cs3)cs2)ccc1F"
  RP-LC retention time [s]: 1220
- chemical.string: "CCCCOc1ccc(NC(=O)c2cc(=O)c3ccc(C)c(C)c3o2)c2cccnc12"
  RP-LC retention time [s]: 788
- chemical.string: "CNC(=O)c1cc(-c2ccccc2)n[nH]1"
  RP-LC retention time [s]: 643

# input for lookup
Query block: Please list RP-LC retention time recorded for the molecule CN(CCc1noc(COc2cccc(C(F)(F)F)c2)n1)C(=O)c1cccs1
Result block: 941

* * *

# test.details: gradient 5% acetonitrile 3 min, to 50% in 2 min, to 85% in 15 min, held 3 min, 100 µL/min
# assay.setup: column: Zorbax Extend-C18 2.1 x 50 mm; eluents: water / acetonitrile, 0.1% formic acid
Rule: RP-LC retention time under 700 s gives no, otherwise yes.

Query block: hey, is RP-LC retention time for this one >= 700 s? CCOc1ccccc1NC(=O)Cn1ccnc1-c1ccnc(N2CCOCC2)c1
Result block: no

Query block: Record Cc1c(C(=O)N2CCC(C)CC2)c(S(=O)(=O)N2CCN(c3ccccn3)CC2)c(C)n1C ; criterion: RP-LC retention time no lower than 700 s. Met?
Result block: no

Query block: Record CCOc1ccc(S(=O)(=O)Nc2ccc3nc(N4CCN(C)CC4)cc(C(=O)O)c3c2)cc1 ; criterion: RP-LC retention time no lower than 700 s. Met?
Result block: no

Query block: Is RP-LC retention time for CN(C)C(=O)c1cc2c(s1)CCC(C(=O)NC1CCCCC1)C2 (stereo not given) at or above 700 s?
Result block: yes

Query block: Check if RP-LC retention time >= 700 s (inclusive). Item: Cc1ccc(CCNC(=O)c2cc3n(n2)CC(C)(C(=O)NCc2ccccc2)N(C)C3=O)cc1 (stereo not given)
Result block: yes

Query block: I'd appreciate it if you could say whether O=C(Nc1nccs1)c1ccc([N+](=O)[O-])cc1Cl has RP-LC retention time at least equal to 700 s.
Result block: yes

Query block: Does the compound CCCCN1CCN(S(=O)(=O)c2ccccc2-c2nc(-c3ccc(F)cc3)no2)CC1 have recorded RP-LC retention time that is 700 s or more?
Result block: yes

Query block: Check if RP-LC retention time >= 700 s (inclusive). Item: Cc1cc(C)cc(N2C=NS(=O)(=O)c3cccnc32)c1
Result block: yes

Query block: I'd appreciate it if you could say whether O=C(NCc1ccco1)c1ccc2c(c1)C(=O)c1ccccc1-2 has RP-LC retention time at least equal to 700 s.
Result block: yes

Query block: Threshold query (RP-LC retention time >= 700 s) on O=c1[nH]c2ccccc2nc1-c1cc(Cl)ccc1NS(=O)(=O)c1ccccc1
Result block: yes

Query block: Can O=C(NCC(O)c1ccsc1)C1(c2ccccc2)CCOCC1 (stereo not given) be said to have RP-LC retention time at or above 700 s?
Result block: no

Query block: Test whether the compound O=C(Nc1ccc2c(c1)N(S(=O)(=O)c1ccc(F)cc1)CCC2)C1CC1 records RP-LC retention time of 700 s or higher.
Result block: yes

Query block: Identify whether the reported RP-LC retention time of the following compound is 700 s or greater: CC(=O)N1C[C@@H](C(=O)NCCc2c(C)noc2C)[C@H](c2nc(C)no2)C1
Result block: no

Query block: In plain terms: is recorded RP-LC retention time at least 700 s for CCNS(=O)(=O)c1cccnc1Nc1ccc(Cl)c(F)c1 ?
Result block: yes

Query block: Form field: RP-LC retention time at least 700 s? Entry: CNC(=O)c1noc([C@@H]2CC(F)(F)CN2Cc2ccc(C)o2)n1
Result block: yes

Hey, just so you know, these numbers are from the METLIN SMRT retention time set (Domingo-Almenara et al. 2019).
